B1: Microsomal triglyceride transfer protein large subunit (Homo sapiens), P55157 (parent)
chain: MILLAVLFLCFISSYSASVKGHTTGLSLNNDRLYKLTYSTEVLLDRGKGKLQDSVGYRISSNVDVALLWRNPDGDDDQLIQITMKDVNVENVNQQRGEKSIFKGKSPSKIMGKENLEALQRPTLLHLIHGKVKEFYSYQNEAVAIENIKRGLASLFQTQLSSGTTNEVDISGNCKVTYQAHQDKVIKIKALDSCKIARSGFTTPNQVLGVSSKATSVTTYKIEDSFVIAVLAEETHNFGLNFLQTIKGKIVSKQKLELKTTEAGPRLMSGKQAAAIIKAVDSKYTAIPIVGQVFQSHCKGCPSLSELWRSTRKYLQPDNLSKAEAVRNFLAFIQHLRTAKKEEILQILKMENKEVLPQLVDAVTSAQTSDSLEAILDFLDFKSDSSIILQERFLYACGFASHPNEELLRALISKFKGSIGSSDIRETVMIITGTLVRKLCQNEGCKLKAVVEAKKLILGGLEKAEKKEDTRMYLLALKNALLPEGIPSLLKYAEAGEGPISHLATTALQRYDLPFITDEVKKTLNRIYHQNRKVHEKTVRTAAAAIILNNNPSYMDVKNILLSIGELPQEMNKYMLAIVQDILRFEMPASKIVRRVLKEMVAHNYDRFSRSGSSSAYTGYIERSPRSASTYSLDILYSGSGILRRSNLNIFQYIGKAGLHGSQVVIEAQGLEALIAATPDEGEENLDSYAGMSAILFDVQLRPVTFFNGYSDLMSKMLSASGDPISVVKGLILLIDHSQELQLQSGLKANIEVQGGLAIDISGAMEFSLWYRESKTRVKNRVTVVITTDITVDSSFVKAGLETSTETEAGLEFISTVQFSQYPFLVCMQMDKDEAPFRQFEKKYERLSTGRGYVSQKRKESVLAGCEFPLHQENSEMCKVVFAPQPDSTSSGWF
partner: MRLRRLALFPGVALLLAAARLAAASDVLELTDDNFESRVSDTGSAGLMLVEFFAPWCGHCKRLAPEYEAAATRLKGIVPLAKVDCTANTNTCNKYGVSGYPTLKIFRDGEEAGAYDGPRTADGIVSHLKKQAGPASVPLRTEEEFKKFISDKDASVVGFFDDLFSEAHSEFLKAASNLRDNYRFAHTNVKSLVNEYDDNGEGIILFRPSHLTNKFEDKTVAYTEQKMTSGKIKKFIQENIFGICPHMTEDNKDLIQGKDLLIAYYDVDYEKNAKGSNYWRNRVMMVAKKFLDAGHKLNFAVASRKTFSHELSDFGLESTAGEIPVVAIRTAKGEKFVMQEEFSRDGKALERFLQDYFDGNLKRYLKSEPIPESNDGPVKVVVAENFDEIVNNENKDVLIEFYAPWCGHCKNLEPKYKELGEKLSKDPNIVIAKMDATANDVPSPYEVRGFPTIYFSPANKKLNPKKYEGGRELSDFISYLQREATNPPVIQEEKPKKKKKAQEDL

variants of: B1; conditions: with pdia3_chlae PDIA3, Q4VIT4
metric.name: effect of a mutation on the interaction

// query Look up effect of a mutation on the interaction: K187R
// result with no effect

// query Look up effect of a mutation on the interaction: K189R
// result with no effect

// query Look up effect of a mutation on the interaction: D169E
// result with no effect

# credit: IntAct's records for PubMed 26224785
